Data credit: the supplement of paper PMC10567573

B1: FBXO34 (parent)
chain: PRYREDPCKQCKKKYVKGDVSLCR

Variants of: B1
Assay: protein stability index of a GFP-peptide fusion (GPS, HEK-293T) (PSI 1-6); higher = more stable;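 further: lentivirally expressed fusions sorted by FACS into six bins by GFP to DsRed ratio, PSI derived from sequencing read proportions per bin multiplied by bin number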
Settings: c terminus: a fixed tail appended
The label depends only on protein stability index: T if it is at least 3, F if it is smaller.

- chainSequence: "PRYREDPCKQCKKKYVKGMVSLCR"
  classAssignment: "F"
- chainSequence: "PRYREDPCKKCKKKYVKGDVSLCR"
  classAssignment: "F"
- chainSequence: "PRYREDPCNQCKKKYVKGDVSLCR"
  classAssignment: "F"
- chainSequence: "PRYREDPCKQCKKKYVKGFVSLCR"
  classAssignment: "F"
- chainSequence: "YRYREDPCKQCKKKYVKGDVSLCR"
  classAssignment: "F"
- chainSequence: "PRYREDYCKQCKKKYVKGDVSLCR"
  classAssignment: "F"
- chainSequence: "PRYREDSCKQCKKKYVKGDVSLCR"
  classAssignment: "F"
- chainSequence: "PRRREDPCKQCKKKYVKGDVSLCR"
  classAssignment: "T"

Let's switch to this variant now.
Confirm if protein stability index reported for the variant "PRYREDPIKQCKKKYVKGDVSLCR" is 3 or above.
T
